system: MCF7; test: Cytotoxicity against human MCF7 cells; assay type: functional
Please respond with reported GI50 for every item in the list.
Give bare numbers, in µg/mL.

{"chemical-structure": "C/C(=C/CC/C(C)=C/CC/C(C)=C\\C(=O)C/C(C)=C/Cc1cc(O)cc(C)c1O)CO", "quantity": "GI50", "numeric-readout": 1.8}
{"chemical-structure": "C/C(=C\\C(=O)C/C(C)=C/Cc1cc(O)cc(C)c1O)CC/C=C(\\C)Cc1cc(C)co1", "quantity": "GI50", "numeric-readout": 1.3}
{"chemical-structure": "C/C(=C/C(=O)C/C(C)=C/Cc1cc(O)cc(C)c1O)CC/C=C(\\C)Cc1cc(C)co1", "quantity": "GI50", "numeric-readout": 0.9}

Give the measured GI50 of C/C(=C/CC/C(C)=C/CC/C(C)=C/C(=O)C/C(C)=C/Cc1cc(O)cc(C)c1O)CO .
2.2
